Each entry below lists one item and its recorded ED50 value.
# target-under-test: cerebral H1 receptor (Mus musculus, UniProt P70174)
# Construct: the entire brain, except for cerebellum and medulla oblongatae, was rapidly excised; from tissue; host or cells: brain homogenate (without cerebellum and medulla oblongata) of orally dosed ICR male mice
# Sequence (P70174 whole entry): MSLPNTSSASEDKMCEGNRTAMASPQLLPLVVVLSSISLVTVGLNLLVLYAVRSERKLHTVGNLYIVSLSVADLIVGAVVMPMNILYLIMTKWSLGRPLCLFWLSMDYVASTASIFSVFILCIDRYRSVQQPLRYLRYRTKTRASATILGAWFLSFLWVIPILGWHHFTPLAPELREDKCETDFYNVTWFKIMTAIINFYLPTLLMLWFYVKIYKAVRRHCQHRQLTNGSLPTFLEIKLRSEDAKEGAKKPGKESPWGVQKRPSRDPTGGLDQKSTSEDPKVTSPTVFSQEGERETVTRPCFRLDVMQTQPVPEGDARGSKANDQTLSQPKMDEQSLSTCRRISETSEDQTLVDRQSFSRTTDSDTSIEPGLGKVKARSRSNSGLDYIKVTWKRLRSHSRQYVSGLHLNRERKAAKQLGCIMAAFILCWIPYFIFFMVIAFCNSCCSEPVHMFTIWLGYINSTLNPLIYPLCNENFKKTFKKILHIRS
# assay: Murine cerebral H1 receptor occupying content (ex vivo)
# Format: in vivo
# condition-details: ICR male mouse, oral administration, brain excised after 1 hour, 3H-pyrilamine binding in brain homogenate; larger = lower brain transfer; read-out: ID50 (the source's name)
Quick reminder: number only, in mg/kg, skip the unit.

Below: 5 compounds and their reported ED50.
>>> print(df.to_string())
                            chemical_smiles  measured_value
0  CCCN1CCC(=C2c3cc(CC(=O)O)ccc3OCc3ccsc32)CC1               8
1  CCN1CCC(=C2c3ccccc3CCc3sc(C(C)(C)C(=O)O)cc32)CC1            66.6
2  CC(C)N1CCC(=C2c3cc(CC(=O)O)ccc3OCc3ccsc32)CC1            37.5
3  CC(=O)CCCN1CCC(=C2c3cc(CCCC(=O)O)ccc3OCc3ccsc32)CC1              23
4  CC(=O)CCN1CCC(=C2c3cc(CC(=O)O)ccc3OCc3ccsc32)CC1            63.8

Q. Given CN1CCC(=C2c3cc(C(C)(C)C(=O)O)ccc3OCc3ccsc32)CC1 , state its recorded ED50.
A. 14.6

Q. Look up ED50: CC(=O)CCCN1CCC(=C2c3cc(CC(=O)O)ccc3OCc3ccsc32)CC1
A. 70.3

Q. Would you kindly share the measured ED50 for CN1CCC(=C2c3cc(CC(=O)O)ccc3OCc3sccc32)CC1 ?
A. 4.2

Q. For CN1CCC(=C2c3cc(C=CC(=O)O)ccc3OCc3ccsc32)CC1 , what is its reported ED50?
A. 28.4

Q. Which ED50 is reported for this compound? COC(=O)Cc1ccc2c(c1)C(=C1CCNCC1)c1sccc1CO2.Cl
A. 237

Q. I would be grateful if you could share the reported ED50 for COC(=O)Cc1ccc2c(c1)C(=C1CCN(CCC(C)=O)CC1)c1sccc1CO2.Cl .
A. 79.2
